Items are presented alongside their recorded IC50.
System: IL-13 induced STAT6 phosphorylation in BEAS-2B human lung epithelial cells
Experiment: Cellular JAKI potency assay (BEAS-2B)
Assay type: cell-based
Details: Homo sapiens, BEAS-2B, BEAS-2B cells, read-out: BEAS2B pIC50 (converted)

A selection of reference data follows.
COMPOUND	IC50
Oc1ccc(-c2ccc3c(-c4nc(C5=CCNC5)c[nH]4)n[nH]c3c2F)c(CC(F)(F)F)c1	31.6 to 100 nM
CCc1cc(O)ccc1-c1ccc2c(-c3nc(C4=CCN(C5CCNC5)CC4)c[nH]3)n[nH]c2c1F (stereo not shown)	100 to 316 nM
CCc1cc(O)ccc1-c1ccc2c(-c3nc(C4=CCN(C(C)C)CC4)c[nH]3)n[nH]c2c1	3.16 to 10 nM

Memo: "CCc1cc(O)ccc1-c1ccc2c(-c3nc(C4=CCNC5(CC5)C4)c[nH]3)n[nH]c2c1" , reported IC50: 10 to 31.6 nM

Memo: "CCc1cc(O)ccc1-c1ccc2c(-c3nc(C4=CCNC4)c[nH]3)n[nH]c2c1" , reported IC50: 3.16 to 10 nM

Memo: "CCc1cc(O)ccc1-c1ccc2c(-c3nc(C4=CCN(C(=O)[C@H](COC)NC)C4)c[nH]3)n[nH]c2c1F" , reported IC50: 31.6 to 100 nM

* * *

Items are presented alongside their recorded IC50.
Tested on: IL-13 induced STAT6 phosphorylation in BEAS-2B human lung epithelial cells
Experiment: Cellular JAKI potency assay (BEAS-2B)
Assay type: cell-based
Details: Homo sapiens, BEAS-2B, BEAS-2B cells, read-out: BEAS2B pIC50 (converted)

A selection of reference data follows.
STRUCTURE_AS_SMILES	MEASURED_TARGET	OBSERVED_VALUE
CCc1cc(O)ccc1-c1ccc2c(-c3nc(C4=CCN(S(=O)(=O)C5CNC5)CC4)c[nH]3)n[nH]c2c1	IL-13 induced STAT6 phosphorylation in BEAS-2B human lung epithelial cells	31.6 to 100 nM
CCc1cc(O)ccc1-c1ccc2c(-c3nc(C4=CCN(C(=O)[C@@H](N)C(C)(C)O)C4)c[nH]3)n[nH]c2c1F	IL-13 induced STAT6 phosphorylation in BEAS-2B human lung epithelial cells	10 to 31.6 nM
CCc1cc(O)ccc1-c1ccc2c(-c3nc(C4=CCN(CC)C4)c[nH]3)n[nH]c2c1F	IL-13 induced STAT6 phosphorylation in BEAS-2B human lung epithelial cells	3.16 to 10 nM
CCc1cc(O)ccc1-c1ccc2c(-c3nc(C4=CCN(CCS(=O)(=O)NC)CC4)c[nH]3)n[nH]c2c1F	IL-13 induced STAT6 phosphorylation in BEAS-2B human lung epithelial cells	31.6 to 100 nM
CCc1cc(O)ccc1-c1ccc2c(-c3nc(C4=CCN(CCNC(C)=O)CC4)c[nH]3)n[nH]c2c1F	IL-13 induced STAT6 phosphorylation in BEAS-2B human lung epithelial cells	10 to 31.6 nM

Memo: "CCc1cc(O)ccc1-c1ccc2c(-c3nc(C4=CCN[C@H](C)C4)c[nH]3)n[nH]c2c1F" , reported IC50: 10 to 31.6 nM

Memo: "CCc1cc(O)ccc1-c1ccc2c(-c3nc(C4=CCN(C(=O)OC)CC4)c[nH]3)n[nH]c2c1F" , reported IC50: 31.6 to 100 nM

Memo: "CCc1cc(O)c(F)cc1-c1ccc2c(-c3nc(C4=CCNC4)c[nH]3)n[nH]c2c1" , reported IC50: 3.16 to 10 nM

Memo: "CCc1cc(O)ccc1-c1ccc2c(-c3nc(C4=CC[C@H](C)NC4)c[nH]3)n[nH]c2c1F" , reported IC50: 3.16 to 10 nM

Memo: "CCc1cc(O)ccc1-c1ccc2c(-c3nc(C4=CCCN(C5COC5)C4)c[nH]3)n[nH]c2c1F" , reported IC50: 31.6 to 100 nM

Memo: "CCc1cc(O)ccc1-c1ccc2c(-c3nc(C4=C[C@H](C(=O)OC)NC4)c[nH]3)n[nH]c2c1F" , reported IC50: 31.6 to 100 nM

Memo: "CCc1cc(O)ccc1-c1ccc2c(-c3nc(C4=CCN(C[C@@H]5COCCN5)C4)c[nH]3)n[nH]c2c1" , reported IC50: 10 to 31.6 nM

Memo: "CCc1cc(O)ccc1-c1ccc2c(-c3nc(C4=CCN(CCc5ccccc5)CC4)c[nH]3)n[nH]c2c1F" , reported IC50: 100 to 316 nM

Memo: "CCc1cc(O)ccc1-c1ccc2c(-c3nc(C4=CCN(CCSC)CC4)c[nH]3)n[nH]c2c1" , reported IC50: 10 to 31.6 nM

* * *

Tested on: IL-13 induced STAT6 phosphorylation in BEAS-2B human lung epithelial cells
Assay: Cellular JAKI potency assay (BEAS-2B)
Type: cell-based
Conditions: Homo sapiens, BEAS-2B, BEAS-2B cells, read-out: BEAS2B pIC50 (converted)
Items are presented alongside their recorded IC50.

A selection of reference data follows.
STRUCTURE_AS_SMILES	MEASURED_TARGET	OBSERVED_VALUE
CCc1cc(O)ccc1-c1ccc2c(-c3nc(C4=CCN(CCNC)CC4)c[nH]3)n[nH]c2c1	IL-13 induced STAT6 phosphorylation in BEAS-2B human lung epithelial cells	31.6 to 100 nM
CCc1cc(O)ccc1-c1ccc2c(-c3nc(C4=CCN(C(C)=O)CC4)c[nH]3)n[nH]c2c1	IL-13 induced STAT6 phosphorylation in BEAS-2B human lung epithelial cells	10 to 31.6 nM
CCc1cc(O)ccc1-c1ccc2c(-c3nc(C4=CCN(C5CCN(C)CC5)CC4)c[nH]3)n[nH]c2c1	IL-13 induced STAT6 phosphorylation in BEAS-2B human lung epithelial cells	10 to 31.6 nM
CCc1cc(O)ccc1-c1ccc2c(-c3nc(C4=CCN(C5COC5)CC4)c[nH]3)n[nH]c2c1F	IL-13 induced STAT6 phosphorylation in BEAS-2B human lung epithelial cells	10 to 31.6 nM

Memo: "CCc1cc(O)ccc1-c1ccc2c(-c3nc(C4=CCN(CCN5CCNC5=O)CC4)c[nH]3)n[nH]c2c1" , reported IC50: 31.6 to 100 nM

Memo: "CCc1cc(O)ccc1-c1ccc2c(-c3nc(C4=CC[C@H](C)N(CCS(C)(=O)=O)C4)c[nH]3)n[nH]c2c1F" , reported IC50: 31.6 to 100 nM

Memo: "CCc1cc(O)ccc1-c1ccc2c(-c3nc(C4=CCN(CCS(C)(=O)=O)CC4)c[nH]3)n[nH]c2c1" , reported IC50: 10 to 31.6 nM

Memo: "CCc1cc(O)ccc1-c1ccc2c(-c3nc(C4=CCN(CCS(C)(=O)=O)CC4)c[nH]3)n[nH]c2c1F" , reported IC50: 10 to 31.6 nM

Memo: "CCc1cc(O)ccc1-c1ccc2c(-c3nc(C4=CCN(C[C@@H]5COCCN5)CC4)c[nH]3)n[nH]c2c1F" , reported IC50: 10 to 31.6 nM

Memo: "CCc1cc(O)ccc1-c1ccc2c(-c3nc(C4=C[C@H](CO)NC4)c[nH]3)n[nH]c2c1" , reported IC50: 31.6 to 100 nM
